Please provide measured growth inhibition for the entries that follow.
# experiment: inhibition of 3D7 malaria parasite growth – strain 3D7 (AID 2306);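 also: 0% = DMSO wells and 100% = chloroquine plus artemisinin control wells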
# condition info: P. falciparum 3D7 erythrocytic growth, LDH absorbance, 72 h; at 2 µM; hits give high values
The answer is to be given in %; state only the numeric part.

Data point: O=C(/C=C/c1ccc(Cl)c(Cl)c1)NC1CCC(CN2CCC(c3coc4ccccc34)CC2)CC1 (centres undefined) ; growth inhibition = 102

Data point: COc1cc(NCCCNCc2cn(S(=O)(=O)c3ccccc3)c3ccccc23)nc2ccccc12 ; growth inhibition = 101

Data point: COc1cc(C)nc2ccc(NC(=O)c3cc([N+](=O)[O-])cc([N+](=O)[O-])c3)cc12 ; growth inhibition = 102

Data point: Cc1cc(NC(=O)NCCN2CCC(NC(=O)c3ccc(Cl)cc3)CC2)c2ccccc2n1 ; growth inhibition = 90

Data point: COc1ccc2c(OC)ccc(CNCCCCCCNCc3ccc(OC)c4ccc(OC)cc34)c2c1 ; growth inhibition = 102

Data point: CC(C)(C)NS(=O)(=O)c1cc(C(=O)N2CCC(CCN3CCC(O)(c4cccc(C(F)(F)F)c4)CC3)(c3cccc(F)c3)CC2)c(Cl)cc1F ; growth inhibition = 88

Data point: c1ccc2[nH]c(Nc3ccc(Nc4nc5ccccc5[nH]4)cc3)nc2c1 ; growth inhibition = 98

Data point: CCCCCN=C(N)c1ccc(OCCCCCOc2ccc(C(N)=NCCCCC)cc2)cc1 ; growth inhibition = 99

Data point: Cc1nc2ccc3nc(NC(=O)c4ccno4)sc3c2s1 ; growth inhibition = 99
